Entries and their measured abundance fitness follow.
B1: Far upstream element-binding protein 3, residues 75 to 150; numbered along this chain, Q96I24 (parent)
chain: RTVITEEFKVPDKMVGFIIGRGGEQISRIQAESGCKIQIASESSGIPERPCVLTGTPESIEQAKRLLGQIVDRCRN

# Variants of: B1
# run.description: abundance fitness (aPCA) (normalised: wild type 0, dead -1); higher = more abundant; growth selection in yeast, the domain comes from the species named
# test.settings: Homo sapiens
endpoint: abundance fitness

residue.string	value
RTVITEEFKVPDKMVGFIIGRGGEQISRIQAESGCKIQIASERSGIPERPCVLTGTPESIEQAKRLLGQIVDRCRN [S43R]	-0.079
RTVITEEFKVPDKMIGFIIGRGGEQISRIQAESGCKIQIASESSGIPERPCVLTGTPESIEQAKRLLGQIVDRCRN [V15I]	-0.111
RTVITEEFKVPDKMVGFIIGRGGEQISRIQTESGCKIQIASESSGIPERPCVLTGTPESIEQAKRLLGQIVDRCRN [A31T]	-0.039
RTVITEEFKVPDKMVGFIIGRGGEQISRIQAESGCKIQIASESSGIPERPCVLTGTPESIEQAKRLLGQITDRCRN [V71T]	-0.026
RTVITVEFKVPDKMVGFIIGRGGEQISRIQAESGCKIQIASESSGIPERPCVLTGTPESIEQAKRLLGQIVDRCRN [E6V]	-0.051
RTVITEEFKYPDKMVGFIIGRGGEQISRIQAESGCKIQIASESSGIPERPCVLTGTPESIEQAKRLLGQIVDRCRN [V10Y]	-0.291
RTVITEEFKVPDKMVGFIIGRGGEQISRIQAEIGCKIQIASESSGIPERPCVLTGTPESIEQAKRLLGQIVDRCRN [S33I]	-0.358
RTVITEEFKVPDKMVGFIIDRGGEQISRIQAESGCKIQIASESSGIPERPCVLTGTPESIEQAKRLLGQIVDRCRN [G20D]	-0.104
RTVITEEFKVPDKMVGFIIGRGGEQISRIQAESGCKIQIASESSGIPERPCVLTMTPESIEQAKRLLGQIVDRCRN [G55M]	-1.24
RTVITEEFKVPDKMVGFIIGRGGEQISRIQAESGCKIQIASESSGIPERPCVLKGTPESIEQAKRLLGQIVDRCRN [T54K]	-0.033
RTVITEEFKWPDKMVGFIIGRGGEQISRIQAESGCKIQIASESSGIPERPCVLTGTPESIEQAKRLLGQIVDRCRN [V10W]	-0.295
RTVITEEFKVPDKMVGFIIGDGGEQISRIQAESGCKIQIASESSGIPERPCVLTGTPESIEQAKRLLGQIVDRCRN [R21D]	-0.071
RTVITEEFKVEDKMVGFIIGRGGEQISRIQAESGCKIQIASESSGIPERPCVLTGTPESIEQAKRLLGQIVDRCRN [P11E]	-0.109
RTVITEEFKVPDKMDGFIIGRGGEQISRIQAESGCKIQIASESSGIPERPCVLTGTPESIEQAKRLLGQIVDRCRN [V15D]	-0.324
RTVITEEFKVPDKMVGFIIGRGSEQISRIQAESGCKIQIASESSGIPERPCVLTGTPESIEQAKRLLGQIVDRCRN [G23S]	-0.087
RTMITEEFKVPDKMVGFIIGRGGEQISRIQAESGCKIQIASESSGIPERPCVLTGTPESIEQAKRLLGQIVDRCRN [V3M]	-0.037
RTVITEEFKVPDKMVGFIIGRGGEQISRIQAESGCKIQIASESSGIKERPCVLTGTPESIEQAKRLLGQIVDRCRN [P47K]	-0.023
RTVITEEFKVPDKMVGFIIGRGGEQISRIQAESGCKIQIASESSGIPERPCVLTGTPESIEQAKRLHGQIVDRCRN [L67H]	-0.908
RTVITEEFKVPDKMVGFIIGRGGEQISRIQAESGCGIQIASESSGIPERPCVLTGTPESIEQAKRLLGQIVDRCRN [K36G]	-0.112
RTVITEEWKVPDKMVGFIIGRGGEQISRIQAESGCKIQIASESSGIPERPCVLTGTPESIEQAKRLLGQIVDRCRN [F8W]	-0.027
RTVITEEFKVPDEMVGFIIGRGGEQISRIQAESGCKIQIASESSGIPERPCVLTGTPESIEQAKRLLGQIVDRCRN [K13E]	-0.032
RTVITEEFKVPDKMVGFIIGRGGEQISRIQAESGPKIQIASESSGIPERPCVLTGTPESIEQAKRLLGQIVDRCRN [C35P]	-0.758
